Attribution: patent US12350259B2

- Assay Name: Atogepant-itraconazole drug interaction study: atogepant plasma PK
- Format: in vivo, human
- Cond: both sexes, human, plasma, oral; Treatment A: atogepant 60 mg single dose alone, fasted
Observation Type: AUC(0-t) (ng·h/mL)
Entry rule: numbers only, all in ng·h/mL.

Item `C[C@@H]1[C@H](c2c(F)ccc(F)c2F)C[C@H](NC(=O)c2cnc3c(c2)C[C@@]2(C3)C(=O)Nc3ncccc32)C(=O)N1CC(F)(F)F` has what recorded AUC(0-t)?
3440

###

- Assay Name: Hepatic impairment study: atogepant plasma PK
- Format: in vivo, human
- Cond: human, plasma, po, 60 mg, severe hepatic impairment, single 60 mg oral dose
Observation Type: half-life (h)
The figure you give is taken to be in h; do not add the unit.

Which half-life is listed for C[C@@H]1[C@H](c2c(F)ccc(F)c2F)C[C@H](NC(=O)c2cnc3c(c2)C[C@@]2(C3)C(=O)Nc3ncccc32)C(=O)N1CC(F)(F)F [atogepant] ?
7.54
